ASSAY_TEXT: Elimination half life in Sprague-Dawley rat at 5 mg/kg, iv
Format: ADME, organism-based
Parameters: dose 5 mg/kg, route intravenous
CONDITIONS_USED: in vivo, read-out: beta t1/2
READOUT_KIND: half-life

Prompt line: Any idea what half-life was measured for [3H]C([3H])([3H])COC(=O)CCCCCCN1C(=O)CC[C@@H]1/C=C/[C@@H](OC(=O)NCCCC(O)(P(=O)(O)O)P(=O)(O)O)C(F)(F)c1ccccc1 ?
Response line: < 15 min

----------
System: Bone
ASSAY_TEXT: Binding affinity to rat bone at 0.1 mg/ml after 10 mins
Type: ADME, tissue-based, Bone element
READOUT_KIND: Activity

| SUBSTANCE_SMILES | MEASUREMENT_TARGET | RESULT |
| --- | --- | --- |
| O=C(O)CCCCCCN1C(=O)CC[C@@H]1/C=C/[C@@H](O)C(F)(F)c1ccccc1 | Bone | Not Active |
| [3H]C([3H])([3H])COC(=O)CCCCCCN1C(=O)CC[C@@H]1/C=C/[C@@H](OC(=O)NCCCC(O)(P(=O)(O)O)P(=O)(O)O)C(F)(F)c1ccccc1 | Bone | 90% |
| O=C1CC[C@H](/C=C/[C@@H](O)C(F)(F)c2ccccc2)N1CCCCCCc1nnn[nH]1 | Bone | Not Active |
| CCOC(=O)CCCCCCN1C(=O)CC[C@@H]1/C=C/[C@@H](O)C(F)(F)c1ccccc1 | Bone | Not Active |
